Tested on: CD73 (Homo sapiens (Human))
Sequence (P21589 27-574): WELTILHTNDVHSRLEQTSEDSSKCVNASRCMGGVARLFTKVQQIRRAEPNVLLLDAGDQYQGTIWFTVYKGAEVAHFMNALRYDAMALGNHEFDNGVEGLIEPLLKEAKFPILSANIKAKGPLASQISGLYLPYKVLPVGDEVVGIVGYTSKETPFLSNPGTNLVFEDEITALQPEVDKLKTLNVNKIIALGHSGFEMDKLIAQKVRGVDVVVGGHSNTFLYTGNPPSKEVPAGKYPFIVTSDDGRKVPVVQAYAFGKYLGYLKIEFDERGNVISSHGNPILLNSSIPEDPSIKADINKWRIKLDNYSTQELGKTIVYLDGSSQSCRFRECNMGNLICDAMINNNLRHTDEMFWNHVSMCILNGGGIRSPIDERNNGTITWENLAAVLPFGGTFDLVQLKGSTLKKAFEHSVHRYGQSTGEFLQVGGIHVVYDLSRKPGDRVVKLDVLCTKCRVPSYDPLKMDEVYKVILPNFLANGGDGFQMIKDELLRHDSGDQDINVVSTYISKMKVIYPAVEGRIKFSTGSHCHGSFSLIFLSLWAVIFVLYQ
Assay protocol: MDA-MB-231 Cell Based CD73 Activity Assay (DMEM)
Test parameters: MDA-MB-231-GFP cells, DMEM medium with 10% human plasma, 200 uM AMP
Value type: EC50 (nM)

a: O=c1[nH]cc(-c2cc([C@H]3C[C@@H]3c3ccc4ncn(CC(F)(F)F)c4c3)c3ncc(F)n3n2)c(=O)[nH]1
b: COC(=O)c1cccc(C2CN(c3cc(-c4c[nH]c(=O)[nH]c4=O)nn4ccnc34)C2)c1
c: Cc1ccc(NC(=O)O[C@H]2CN(c3cc(-c4c[nH]c(=O)[nH]c4=O)nn4ccnc34)CC2(F)F)c(F)c1
d: CC(C)(COc1cc(-c2c[nH]c(=O)[nH]c2=O)nn2ccnc12)C(F)(F)F
Sort the items above on EC50, descending. Please, when replying, give the labels in the order that was requested.
d, b, c, a
